assay text: qHTS assay to identify small molecule antagonists of the estrogen related receptor (ERR) signaling pathway from Tox21 library (AID 1224848); also: nearly all actives have a fitted effect of over 50% in size
particulars: ERR reporter cell line, luciferase antagonist mode, 18 h; series mostly up to 92.4 µM
Description: U.S. Tox21 Program National Center for Advancing Translational Sciences [NCATS] NIH Chemical Genomics Center [NCGC] U.S. Environmental Protection Agency [EPA] National Institutes of Environmental Health Sciences [NIEHS] National Toxicology Program [NTP] U.S. Food and Drug Administration [FDA] Tox21 Assay Overview: Estrogen related receptors (ERRs), the first orphan nuclear receptors discovered, play an important role in the control of cellular energy metabolism. […]
Results filed as inconclusive are left out. The source made the active and inactive calls. Calls follow the shape of the dose curve; as a rule, active = well fitted inhibition curve with a large enough effect in the repeat runs; inconclusive = weak or mixed curves; inactive = no such curve, though single readings can be large or run the other way.
Labels: True for active, False for inactive

>>> df
                                        mol  answer_label
0                        OCCOc1cccc(OCCO)c1         False
1  CC1=CC(=C(c2ccc(N)cc2)c2ccc(N)cc2)C=CC1=N          True
2  CCCN(C1CCN(C(=O)C2CCNCC2)CC1)[C@@H]1CCc2ccc(OC)cc2C1         False
3  COC(=O)/C=C/C(C)=C\C=C\C(C)=C\C=C\C=C(C)\C=C\C=C(C)\C=C\C(=O)O         False

###

assay text: qHTS assay to identify small molecule antagonists of the farnesoid-X-receptor (FXR) signaling pathway - cell viability counter screen (AID 743221); also: % is scaled to controls: 0 for no effect and ±100 for the full control effect; nearly all actives have a fitted effect of over 50% in size
particulars: FXR-bla HEK293T viability, CellTiter-Glo luminescence, 16 h; series mostly up to 62.6 µM
Inconclusive results are not listed. Calls of active or inactive are those of the source. Calls come from the whole dose curve; as a rule, active = well fitted cell-killing curve with a large enough effect in the repeat runs (not every such curve was filed as active); inconclusive = weak or mixed curves, or effect the other way; inactive = no such curve, though single readings can be large or run the other way.
reported endpoint: activity change, negative = cytotoxicity

In [3]: df
Out[3]:
                                    molecule                         reported_endpoint                 reported_value
 0                               OCCc1ccncc1  activity change, negative = cytotoxicity                       inactive
 1                           Sc1nc(S)nc(S)n1  activity change, negative = cytotoxicity                       inactive
 2                       FC(F)(Cl)C(F)(Cl)Cl  activity change, negative = cytotoxicity                       inactive
 3                   Nc1ccc(-c2ccc(F)cc2)cc1  activity change, negative = cytotoxicity                       inactive
 4  CCCCCCCCC(=O)OCC(C)OC(=O)CCCCCCCC (configuration not stated)  activity change, negative = cytotoxicity                       inactive
 5      O=C(O)c1cc(C(=O)O)cc([N+](=O)[O-])c1  activity change, negative = cytotoxicity                       inactive
 6  C/C(=C(\CCO)SS/C(CCO)=C(\C)N(C=O)Cc1cnc(C)nc1N)N(C=O)Cc1cnc(C)nc1N  activity change, negative = cytotoxicity                       inactive
 7  CC(C)(C(=O)O)c1ccc(C(O)CCCN2CCC(C(O)(c3ccccc3)c3ccccc3)CC2)cc1 (configuration not stated)  activity change, negative = cytotoxicity                       inactive
 8  Cc1ccc(Cl)c(OCC(O)CNC(C)(C)C)c1 (configuration not stated)  activity change, negative = cytotoxicity                       inactive
 9      O=c1[nH]nc(-c2ccc([N+](=O)[O-])o2)o1  activity change, negative = cytotoxicity                       inactive
10                    O=c1c2ccccc2oc2ccccc12  activity change, negative = cytotoxicity                       inactive
11            COc1ccc(/C(C)=C/C(=O)O)c(OC)c1  activity change, negative = cytotoxicity                       inactive
12                O=C(O)c1c2ccccc2cc2ccccc12  activity change, negative = cytotoxicity                       inactive
13          CCOCCn1c(N2CCCN(C)CC2)nc2ccccc21  activity change, negative = cytotoxicity                       inactive
14                         CCC[Si](OC)(OC)OC  activity change, negative = cytotoxicity                       inactive
15  O=C(O)c1ccc2c(c1)nc(C(=O)NC1CCN(C3CC3)CC1)n2Cc1cc(-c2ccc(Cl)s2)on1  activity change, negative = cytotoxicity                       inactive
16  Clc1cccc(C(c2ccc3nc[nH]c3c2)n2ccnc2)c1 (configuration not stated)  activity change, negative = cytotoxicity                       inactive
17                                     COC=O  activity change, negative = cytotoxicity  10.8% [at 5.95 µM] (inactive)
18                      CCCCCCOC(=O)c1ccccc1  activity change, negative = cytotoxicity                       inactive
19                                CCCCCCCCNC  activity change, negative = cytotoxicity                       inactive
20                                    CCCCCO  activity change, negative = cytotoxicity                       inactive
21                      C=C[Si](OCC)(OCC)OCC  activity change, negative = cytotoxicity                       inactive
22        C[Si](C)(C)O[Si](C)(C)O[Si](C)(C)C  activity change, negative = cytotoxicity                       inactive
23  CC1(COc2ccc(CC3SC(=O)NC3=O)cc2)CCCCC1 (configuration not stated)  activity change, negative = cytotoxicity                       inactive
24             Nc1cccc2c(=O)[nH][nH]c(=O)c12  activity change, negative = cytotoxicity                       inactive
25              O=C(O)c1cccc(C(=O)O)c1C(=O)O  activity change, negative = cytotoxicity                       inactive
26  CC(Cc1ccccc1)(NC(=O)CN)c1ccccc1 (configuration not stated)  activity change, negative = cytotoxicity                       inactive
27         O=C(OCCCCCOC(=O)c1ccccc1)c1ccccc1  activity change, negative = cytotoxicity                       inactive
28      O=C(O)c1cc(C(=O)O)c(C(=O)O)cc1C(=O)O  activity change, negative = cytotoxicity                       inactive
29        COc1cc(CNC(=O)CCCC/C=C/C(C)C)ccc1O  activity change, negative = cytotoxicity                       inactive
30  O=C(C1CCCCC1)N1CC(=O)N2CCCc3ccccc3C2C1 (configuration not stated)  activity change, negative = cytotoxicity                       inactive
31                            CC(C)(O)C(=O)O  activity change, negative = cytotoxicity                       inactive
32                  CC1(C)CC(O)CC(C)(C)N1[O]  activity change, negative = cytotoxicity                       inactive
33  CC(=O)CC/C=C(\C)CC/C=C(\C)CC/C=C(\C)CCC=C(C)C  activity change, negative = cytotoxicity                       inactive
34  CCc1c(C)[nH]c2c1C(=O)C(CN1CCOCC1)CC2 (configuration not stated)  activity change, negative = cytotoxicity                       inactive
35             O=Cc1ccc(Cl)c([N+](=O)[O-])c1  activity change, negative = cytotoxicity                       inactive
36                    CC1(C)CC(=O)CC(C)(C)N1  activity change, negative = cytotoxicity                       inactive
37  CC1=C(C)C(=O)C(C(CCCCCC(=O)O)c2ccccc2)=C(C)C1=O (configuration not stated)  activity change, negative = cytotoxicity                       inactive
38                          CCCCCCCCCCCCSC#N  activity change, negative = cytotoxicity                       inactive
39                           O=C(O)COCC(=O)O  activity change, negative = cytotoxicity                       inactive
40                             Nc1ccc(F)cc1F  activity change, negative = cytotoxicity                       inactive
41                    CCCCCCCCCCCCCCCCC(=O)O  activity change, negative = cytotoxicity                       inactive
42                                CCOC(C)OCC  activity change, negative = cytotoxicity                       inactive
43                  O=C(O)CCc1nc2ccccc2[nH]1  activity change, negative = cytotoxicity                       inactive
44                            CC(C)CC(C)(C)C  activity change, negative = cytotoxicity                       inactive
45  Cc1ccc(NC(=O)c2ccc(CN3CCN(C)CC3)cc2)cc1Nc1nccc(-c2cccnc2)n1  activity change, negative = cytotoxicity                       inactive
46              Cc1c(Cl)cccc1Nc1ccccc1C(=O)O  activity change, negative = cytotoxicity                       inactive
47                   O=[N+]([O-])c1ccccc1CCO  activity change, negative = cytotoxicity                       inactive
48                      O=C(c1ccco1)N1CCNCC1  activity change, negative = cytotoxicity                       inactive
49            CCc1ccc2c(c1)C(=O)c1ccccc1C2=O  activity change, negative = cytotoxicity                       inactive
50                                 C1=COCCC1  activity change, negative = cytotoxicity                       inactive
51                          CCCC(=O)OCCC(C)C  activity change, negative = cytotoxicity                       inactive
52                   CC(C)(C)c1ccc(CCC=O)cc1  activity change, negative = cytotoxicity                       inactive
53            c1ccc(-c2ccc(-c3ccccc3)cc2)cc1  activity change, negative = cytotoxicity                       inactive
54  COc1ccc(/C=C/S(=O)(=O)NC(=O)c2ccc(C)cc2Cl)cc1  activity change, negative = cytotoxicity                       inactive
55    CCC(=O)O[C@@H]1C[C@H]2CC[C@]1(C)C2(C)C  activity change, negative = cytotoxicity                       inactive
56  CCCCC(CC)COCCC#N (configuration not stated)  activity change, negative = cytotoxicity                       inactive
